test system: Escherichia coli TOP10; assay: shrunken log2 fold change of peptide-encoding DNA abundance (4.5 h post-induction vs induction); higher = less antimicrobial activity (less host growth inhibition); conditions: time post-induction: 4.5 h; library: site-saturation at positions 5, 18, 19, 20
Values of shrunken log2 fold change greater than or equal to -0.04 map to label 1; values below map to label 0.

Example cases with answers are listed next.
# residue_sequence, assay_system, class_name
records = [
    ("RRIRCRPPRLPRPRPRPWPAPRP", "Escherichia coli TOP10", "label 1"),
    ("RRIRGRPPRLPRPRPRPFWYPRP", "Escherichia coli TOP10", "label 1"),
    ("RRIRDRPPRLPRPRPRPSKKPRP", "Escherichia coli TOP10", "label 0"),
    ("RRIRHRPPRLPRPRPRPDDNPRP", "Escherichia coli TOP10", "label 1"),
    ("RRIRGRPPRLPRPRPRPDLMPRP", "Escherichia coli TOP10", "label 1"),
    ("RRIRTRPPRLPRPRPRPYTYPRP", "Escherichia coli TOP10", "label 0"),
]

Q) I'd appreciate it if you could say whether RRIRERPPRLPRPRPRPKFHPRP has shrunken log2 fold change at least equal to -0.04.
A) label 0

Q) I'd appreciate it if you could say whether RRIRFRPPRLPRPRPRPWYHPRP has shrunken log2 fold change at least equal to -0.04.
A) label 0

---

Property: shrunken log2 fold change; scope: individual sequences
system: Escherichia coli TOP10; assay: shrunken log2 fold change of peptide-encoding DNA abundance (4.5 h post-induction vs induction); higher = less antimicrobial activity (less host growth inhibition); details: time post-induction: 4.5 h; library: site-saturation at positions 5, 18, 19, 20
# print the numeric value only

# residue_sequence, assay_readout, assay_value
rows = [
    ("RRIRHRPPRLPRPRPRPVCRPRP", "shrunken log2 fold change", -0.3),
    ("RRIRERPPRLPRPRPRPGQRPRP", "shrunken log2 fold change", -0.0192),
    ("RRIRIRPPRLPRPRPRPAYYPRP", "shrunken log2 fold change", -0.401),
    ("RRIRMRPPRLPRPRPRPIDTPRP", "shrunken log2 fold change", 0.0143),
    ("RRIRYRPPRLPRPRPRPINLPRP", "shrunken log2 fold change", -0.145),
]

Q) Please list shrunken log2 fold change recorded for the sequence RRIRWRPPRLPRPRPRPGKDPRP
A) -0.222

Q) Please list shrunken log2 fold change recorded for the sequence RRIRCRPPRLPRPRPRPMSHPRP
A) -0.207

Q) Please list shrunken log2 fold change recorded for the sequence RRIRHRPPRLPRPRPRPGYAPRP
A) -0.163

Q) Please list shrunken log2 fold change recorded for the sequence RRIRKRPPRLPRPRPRPPLQPRP
A) 0.558

Q) Please list shrunken log2 fold change recorded for the sequence RRIRRRPPRLPRPRPRPMHWPRP
A) 0.148

Q) Please list shrunken log2 fold change recorded for the sequence RRIRMRPPRLPRPRPRPQVSPRP
A) 0.399

---

test system: Escherichia coli TOP10; experiment: shrunken log2 fold change of peptide-encoding DNA abundance (4.5 h post-induction vs induction); higher = less antimicrobial activity (less host growth inhibition); details: time post-induction: 4.5 h; library: site-saturation at positions 5, 18, 19, 20;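 also: peptides expressed intracellularly from a pBAD plasmid library in pooled LB shake-flask culture, induced with 0.3% L-arabinose, DNA abundance read by NGS, three biological replicates, DESeq2 with apeglm shrinkage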
assay_readout: shrunken log2 fold change
# print the numeric value only

# residue_sequence, assay_system, shrunken log2 fold change
records = [
    ("RRIRYRPPRLPRPRPRPTTDPRP", "Escherichia coli TOP10", -0.775),
    ("RRIRERPPRLPRPRPRPGNIPRP", "Escherichia coli TOP10", -0.989),
]

Q) Please list shrunken log2 fold change recorded for the sequence RRIRVRPPRLPRPRPRPRNYPRP
A) -0.567

Q) Please list shrunken log2 fold change recorded for the sequence RRIRYRPPRLPRPRPRPTKSPRP
A) -0.517
